Assay: yeast display, Sf9 membrane polyspecificity reagent, FACS + sequencing; frameworks hold sequencing errors
Measurement type: polyreactivity (PSR sort gate)

# count of solved cases: 4
Challenge: Recorded polyreactivity (PSR sort gate) for "QVQLVASGGGLVQAGGSLRLSCAASGSTFRVNVMGWYRQAPGIERELVADITTSGGSTYYADSVKGRFTISRDNAMITVYLQINSLTPEDTAVYYCNTTYQSGWGPDMDYWGQGTQVTVSS" , please?
Response given: low polyreactivity

Challenge: Follow-up item: "QVQLVESGGGLVQAGGSLRLSCAASGRIFVKNAMGWYRQAPGKERELVATISSGGNTNYADSVKGRFTISRDNAKNTVYLQMNSLKPEDTAVYYCAAVWDLGDYELPYDYWGQGTQVTVSS"
Response given: low polyreactivity

Challenge: Then this sequence: "QDQLVESGRGLVQAGGSLRLSCAASGINIPVYAMGWYRKAPRKERELLAAISSGGSTYYADSVKGRFTISRDNAKNTVYLQMNSLKPEDTAVYYCAAATRSAKYRFGYWGQGTQVTVSS"
Response given: high polyreactivity

Challenge: Lookup "QVQLVESGGGLVQAGGSLRLSCAASGFTFLVYAMGWYRQAPGKERELVAGITSGGRTYYADSVKGRFTISRDNAKNTVYLQMNSLKPEDTAVYYCAASRWAYEMNYWGQGSQVTVSS"
Response given: high polyreactivity

Please find the next sequence below.
Challenge: Report polyreactivity (PSR sort gate) for "QVQLVESGGGLVQAGGSLRLSCAASGRIFKPYAMGWYRQAPGKERELVAAITDGGTTYYADSVKGRFTISRDNAKNTVYLQMNSLKPEDTAVYYCAADLGKLRYDYWGPGTQVTVSS" please.
Response given: low polyreactivity

----------
Experiment: yeast display, Sf9 membrane polyspecificity reagent, FACS + sequencing; frameworks hold sequencing errors
Measurement type: polyreactivity (PSR sort gate)

Challenge: Form field: reported polyreactivity (PSR sort gate) of "QVQLVESGAGLVQAGGSLRLSCAASGRIFYWNAMGWYTQAPGKEREFVAAISWSGGSTYADSVKGRFTISRDNAKNTVYLQMNSLKPEDTAVYYCATRVSRSFRAYDYWGQGTQVTVSS"
Response given: high polyreactivity

Challenge: Likewise for "QVQHVESGGGLVQAGGRLRLRCAASGSTFDDNAKGWYIHAPGKERELVAGISDGDDSTNYADSVKGRFTISRDNAKNTVYFQMNRLKPEDTAVYYCNARYVRTYGVRFGYDYWGQGTQLTVSS" ?
Response given: low polyreactivity

Challenge: Input "QVQLVESGGGLVQAGGSLRLSCAASGLTFVKNAMGWNRQAPGKERELVAAITVSGSRTYYADSVKGRFTISRDNAKNTVYLQMNSLKPEDTGVYYCNAYPYYLVRNMDSWGQGTLVTVSS"
Response given: high polyreactivity

Challenge: // query: "QVQLVESGGGLVQAGGSLRLSCAASGNIFAWYAMGWYRQAPGKERELDADISSRGGSTYYADSVKGRFTISRDNAKNTVYLQMNSLKPEDTAVYYCAAVWYWTQDYDYWGQGTQVTVSS"
Response given: low polyreactivity

Challenge: Now consider "QVQLVESGGGLVQAGGSLRLSCAASGSIFANAMGWYRQAHGKERELVAAISFSGGRTFYADSVKGRFTISRDNAKNTVYLQMNSLKPEDTAVYYCAKGKISSRSGIYNYWGQGTQVTVSS" and answer again.
Response given: high polyreactivity

Others:
Challenge: // polyreactivity (PSR sort gate) lookup, key: "QVQLVESGGGLVQAGGSLRLSCAASGRIFDDYAMGWYRQAPGKEREFVAAISRSGASTYYADSVKGRFTISRDNAKNTVYLQMNSLKPEDTAVYYCAARAGANYRMDYWGQGTQVTVSS"
Response given: high polyreactivity

Challenge: Similarly, "QVQRVESGGRLVQAGGSLRLSCAASGFIFRYYAMGWYRQAPGKERELVAAISSRGGTTYYADSVKGRFTISRDNPNNTVYLQMNSLKPEDTPVDYGAAGGGRFRHGGRDYWGQGTQVTVSS" ?
Response given: high polyreactivity

Challenge: Try this sequence next: "QVQLVESGGGLVQAGGSLRISCAASGSTFGDYTMGWYRQAHGKERELVAAITLTGGSTFYADSVKGRFTISRDNAKNTVYLQMNSLKPVDTAVYYCNTDVIRWVGGTWHRYYYWGQGTQVTVSS"
Response given: low polyreactivity

Challenge: What do we get for "QVQLVESGGGLVQAGGSLRLSCAASALTFFYYAMGWYRQAPGKERELVAAISWSGGRTYYADSVKGRFTISRDNAKNTVYLQMNSLKPEDTAVYYCSADYITAHSSYSTYGYWGQGTQVTVSS" ?
Response given: low polyreactivity

Challenge: Here is the next sequence: "QVQLVESGGGLVQAGGSLRLSCAASGRTFWYYTMGWYRQAPGKEREFVAAIRGSGTSTYYADSGKARFTISRDNAKNNVYLQMNSLKPEDTAVYYCAAESPVYHLVTYDYWGQGTQVTVSW"
Response given: high polyreactivity

Challenge: Moving on to "QVQLVESGGGLVQAGGSLRLSCAASGSIFDRNAMGWYRQAPGKERELVAAISRSSGNTYYADSVKGRFTISRDNAKNTVYLQMNSLNPEDTAVYYCNKAVSYGTYKYYYWGQGTQVTVSS"
Response given: high polyreactivity

Challenge: Follow-up entry: "QVQLVESGGGLVQAGGSLRLSCAASGSTAYVMGWYRQAPGKETELVAAISKSGGSTYYADSVKGRFTISRDNAKNTVYLQMNSLKPEDTAVYYCSALYPTTTAYRYGYWGQGTQVTVSS"
Response given: high polyreactivity

Challenge: Could you do the same for "QVQLVESGGGLVQAGGSLRLSSAASGRTFAVYTMRWYRQAPGKEREFVARIRYSGGNTYYADSVKRRFTLSRDNAKNTVYLQMNSLKPEDTAVYSCAARSRYRVYGSRNFDYWGQGSQVTVSS" , please?
Response given: high polyreactivity

----------
Experiment: yeast display, Sf9 membrane polyspecificity reagent, FACS + sequencing; frameworks hold sequencing errors
Measurement type: polyreactivity (PSR sort gate)

Solved entries:
Challenge: Any idea what its polyreactivity (PSR sort gate) is? The sequence is "QEQLQESGGCPVLAGGSLRLSCAASGTIFVRLDMGWYRQAPGKEREFVATIGSGSSTYYADSVKGSFTISRDNVKNTVYLQMNSLKPEDTAVYYCAVSAAEQSRHYYWDQGTQVTVSS"
Response given: low polyreactivity

Challenge: And then "QVQLVESGGGLVQAGGSLRLTCAASGSIFAKNAMGWYRQAPGKERELVAAIDLNGGSTYYADSVKGRFTISRDNAKNTDYLQMNSLKPEDTAVYYCAVYYGHSSVIRSSPEYDSWGQGTQVTVSS" , what is it?
Response given: low polyreactivity

Challenge: Subsequent entry: "QVQLVESAGGLVQAGGSLRLSCAASGSTYTSYAMGWYRQAPGKERELVAAITRNGGTTYYADSVKGRFTLSRDNAKNTVYLQMNSLKPEDTAVYYCNAPHYYYITSDRRFDYWGQGTQVTVSS"
Response given: low polyreactivity

Challenge: Thanks! And "QVQLVESGGGLVQAGGSLRLSCAASGSTFTPYAMGWYRQAPGKERELVAAISWSDDSTYYADSVKGRFTISRDIAKNTVYLQMNSLKPEDTAVYYCAASAYVDYGVYTYIMDYWGQGTQVTVSS" ?
Response given: high polyreactivity

Challenge: Repeat for the following sequence: "QVQLVESGGGLVQAGGSLRLSCAASGSIFYFNAMGWYRQAPGKERELVAAITASGGRTYYADSVKGRFTISRDNAKNTVYLQMNSLKPEDTAVYYCNAYRPWSWWGEMDYWGQGTQVTVSS"
Response given: high polyreactivity

---
Challenge: State the recorded polyreactivity (PSR sort gate) for this entry: "QVQLVESGGGLVQAGGSLRLSCAASGRIFGYYAMGWYRQAPGTERELVAAITYNGASTYYADSVKGRFTISRDNAKNTVYLQMNSLKPEDTAVYYCAVLTRYGGYGYWGQGTQVTVSS"
Response given: high polyreactivity

Challenge: Try this sequence next: "QVQLVESGGGLVQAGGSLRLSCAASGSNFSRNTMGWYRQAPWKERELVAGISSSGSRTYYADSVKGRFTISRDNAKNTVYLLMNSLKPEDTAVYYCAAEHQRSRGRRYYIGYDYWGQGTQVTVSS"
Response given: low polyreactivity

Challenge: Do the same for "QVQLVESGGGLVQAGGSLRLSCAASGSIFFEYAMGWYRQAPGKERELVASINRGGGSTYYADSVKGRFTISRDNAKNTVYLQMNSLKPEDTAVYYCAAQWKYRQSYLDYYWGQGTQVTVSS" please
Response given: low polyreactivity

Challenge: Moving on to "QVQLVDSGGGLVQAGGSLRLSCAASGFIFVGYGMGWYRQAPGKERELVAAIDGGGSTYYADSVKGRFTISRDNAKNTVYLQMNSLKPEDTAVYYCNALPAYGWYDYDYWGQGTQVTVSS"
Response given: low polyreactivity

Challenge: And then "QVQLVESGGGLVQAGGSLRLSCAASGSTLGAYAMGWYRQAPGKERELVAAISRSGGNTYYADSVKGRFTISRDNAKNTVYLQMNSLKPEDTAVYYCAAVRLYRYDYWGQGTQVTVSS" , what is it?
Response given: low polyreactivity

Challenge: And "QVQLEESGGGLVQAGGSLRLSCAASGITLAHNAMGWYRQAAGKERELVASITESGGSTYYADSVKGRFTISRDNAKNTVYLQMNRLKPEDTAVYYCAVRPTVGYWTVYYWGQGTQVTVSS" ?
Response given: high polyreactivity

Challenge: Likewise for "QVQLVESGGGLVQAGGSLRLSCAASGFTFDANAMGWYRQAPGKERELVAAINWSGGSTYYADSVKGRFTISRDNAKYTVYLQMNSLKPEDTAVYYCAAELWGLFDYWGQGTQVTVSS" ?
Response given: low polyreactivity

Challenge: Could you do the same for "QVQLVESGGGLVQAGGSLRLSCAASGFIFSWNAMGWYRQAPGKERELVAAITNRGGSTYYADSVKGRFTISRDNAKNTVYLQMNSLKPEDTAVYYCAKRSSRWGRTPYDYWGQGTQVTVSS" , please?
Response given: high polyreactivity
